Tested on: LoVo
Test: Cytotoxicity against human LoVo cells incubated for 72 hrs by MTT assay
Type: functional, cell-based
Here the recorded pIC50 is given for each entry.
Entry type: numeric. Quantity: pIC50, the -log10 of concentration in molar units.

Known pIC50 results, listed for orientation:
structureSmilesString	pIC50
CC[C@@H](C(=O)[C@@H](C)[C@@H](O)[C@H](C)[C@@H]1O[C@@H]([C@@H](CC)C(=O)On2nnc3ccccc32)CC[C@@H]1C)[C@H]1O[C@]2(C=C[C@@H](O)[C@]3(CC[C@@](C)([C@H]4CC[C@](O)(CC)[C@H](C)O4)O3)O2)[C@H](C)C[C@@H]1C	5.39
CC[C@@H](C(=O)[C@@H](C)[C@@H](O)[C@H](C)[C@@H]1O[C@@H]([C@@H](CC)C(=O)Nc2ccc3c(c2)OCCOCCOCCOCCO3)CC[C@@H]1C)[C@H]1O[C@]2(C=C[C@@H](O)[C@]3(CC[C@@](C)([C@H]4CC[C@](O)(CC)[C@H](C)O4)O3)O2)[C@H](C)C[C@@H]1C	5.20

Kindly review the next compound as well.
For this compound ( CC[C@@H](C(=O)[C@@H](C)[C@@H](O)[C@H](C)[C@@H]1O[C@@H]([C@@H](CC)C(=O)NCCc2c[nH]c3ccccc23)CC[C@@H]1C)[C@H]1O[C@]2(C=C[C@@H](O)[C@]3(CC[C@@](C)([C@H]4CC[C@](O)(CC)[C@H](C)O4)O3)O2)[C@H](C)C[C@@H]1C ), measured pIC50 is 5.46

----------
Test system: HL-60
Assay: Cytotoxicity against human HL60 cells incubated for 72 hrs by MTT assay
Conditions: HL-60, 72 h
pIC50: −log10 of the molar value.
Where pIC50 equals or exceeds 5, the correct label is met; where it does not, the label is not met.

structureSmilesString	target	classAssignment
CC[C@@H](C(=O)[C@@H](C)[C@@H](O)[C@H](C)[C@@H]1O[C@@H]([C@@H](CC)C(=O)Nc2ccccc2)CC[C@@H]1C)[C@H]1O[C@]2(C=C[C@@H](O)[C@]3(CC[C@@](C)([C@H]4CC[C@](O)(CC)[C@H](C)O4)O3)O2)[C@H](C)C[C@@H]1C	HL-60	met

Check this molecule for pIC50 at or above 5: CC[C@@H](C(=O)[C@@H](C)[C@@H](O)[C@H](C)[C@@H]1O[C@@H]([C@@H](CC)C(=O)NCCCN2CCOCC2)CC[C@@H]1C)[C@H]1O[C@]2(C=C[C@@H](O)[C@]3(CC[C@@](C)([C@H]4CC[C@](O)(CC)[C@H](C)O4)O3)O2)[C@H](C)C[C@@H]1C met

----------
Here the recorded Ratio IC50 is given for each entry.
Test system: HL-60
Assay: Resistance index, ratio of IC50 for vincristine-resistant human HL60/Vinc cells to IC50 for parental human HL60 cells
Format: functional

structureSmilesString	target	Ratio IC50
CC[C@@H](C(=O)[C@@H](C)[C@@H](O)[C@H](C)[C@@H]1O[C@@H]([C@@H](CC)C(=O)Nc2ccc3c(c2)OCCOCCOCCOCCO3)CC[C@@H]1C)[C@H]1O[C@]2(C=C[C@@H](O)[C@]3(CC[C@@](C)([C@H]4CC[C@](O)(CC)[C@H](C)O4)O3)O2)[C@H](C)C[C@@H]1C	HL-60	2.23
CC[C@@H](C(=O)[C@@H](C)[C@@H](O)[C@H](C)[C@@H]1O[C@@H]([C@@H](CC)C(=O)NCCOCCOCCOC)CC[C@@H]1C)[C@H]1O[C@]2(C=C[C@@H](O)[C@]3(CC[C@@](C)([C@H]4CC[C@](O)(CC)[C@H](C)O4)O3)O2)[C@H](C)C[C@@H]1C	HL-60	1.17

Kindly review the next molecule as well.
Item: CCCCNC(=O)[C@H](CC)[C@H]1CC[C@H](C)[C@H]([C@@H](C)[C@H](O)[C@H](C)C(=O)[C@H](CC)[C@H]2O[C@]3(C=C[C@@H](O)[C@]4(CC[C@@](C)([C@H]5CC[C@](O)(CC)[C@H](C)O5)O4)O3)[C@H](C)C[C@@H]2C)O1 | System: HL-60 | Ratio IC50: 1.37

----------
Here the recorded Ratio IC50 is given for each entry.
Test system: HL-60
Test: Resistance index, ratio of IC50 for vincristine-resistant human HL60/Vinc cells to IC50 for parental human HL60 cells
Type: functional
Please respond with just the number, no unit label.

Known Ratio IC50 results, listed for orientation:
structureSmilesString	Ratio IC50
CC[C@@H](C(=O)[C@@H](C)[C@@H](O)[C@H](C)[C@@H]1O[C@@H]([C@@H](CC)C(=O)O)CC[C@@H]1C)[C@H]1O[C@]2(C=C[C@@H](O)[C@]3(CC[C@@](C)([C@H]4CC[C@](O)(CC)[C@H](C)O4)O3)O2)[C@H](C)C[C@@H]1C	7.82
CC[C@@H](C(=O)[C@@H](C)[C@@H](O)[C@H](C)[C@@H]1O[C@@H]([C@@H](CC)C(=O)On2nnc3ccccc32)CC[C@@H]1C)[C@H]1O[C@]2(C=C[C@@H](O)[C@]3(CC[C@@](C)([C@H]4CC[C@](O)(CC)[C@H](C)O4)O3)O2)[C@H](C)C[C@@H]1C	2.85
CC[C@@H](C(=O)[C@@H](C)[C@@H](O)[C@H](C)[C@@H]1O[C@@H]([C@@H](CC)C(=O)NCCc2c[nH]c3ccccc23)CC[C@@H]1C)[C@H]1O[C@]2(C=C[C@@H](O)[C@]3(CC[C@@](C)([C@H]4CC[C@](O)(CC)[C@H](C)O4)O3)O2)[C@H](C)C[C@@H]1C	1.22
CC[C@@H](C(=O)[C@@H](C)[C@@H](O)[C@H](C)[C@@H]1O[C@@H]([C@@H](CC)C(=O)NCc2ccccc2)CC[C@@H]1C)[C@H]1O[C@]2(C=C[C@@H](O)[C@]3(CC[C@@](C)([C@H]4CC[C@](O)(CC)[C@H](C)O4)O3)O2)[C@H](C)C[C@@H]1C	1.66

Kindly review the next compound as well.
For this compound ( CC[C@@H](C(=O)[C@@H](C)[C@@H](O)[C@H](C)[C@@H]1O[C@@H]([C@@H](CC)C(=O)NCCCN2CCOCC2)CC[C@@H]1C)[C@H]1O[C@]2(C=C[C@@H](O)[C@]3(CC[C@@](C)([C@H]4CC[C@](O)(CC)[C@H](C)O4)O3)O2)[C@H](C)C[C@@H]1C ), measured Ratio IC50 is 4.99

----------
System: LoVo
Test: Resistance index, ratio of IC50 for doxorubicin-resistant human LoVo/DX cells to IC50 for parental human LoVo cells
Format: functional
recordedMetric: Ratio IC50
Please respond with just the number, no unit label.

Known Ratio IC50 results, listed for orientation:
structureSmilesString	Ratio IC50
CC[C@@H](C(=O)[C@@H](C)[C@@H](O)[C@H](C)[C@@H]1O[C@@H]([C@@H](CC)C(=O)Nc2ccc3c(c2)OCCOCCOCCOCCO3)CC[C@@H]1C)[C@H]1O[C@]2(C=C[C@@H](O)[C@]3(CC[C@@](C)([C@H]4CC[C@](O)(CC)[C@H](C)O4)O3)O2)[C@H](C)C[C@@H]1C	0.91
CC[C@@H](C(=O)[C@@H](C)[C@@H](O)[C@H](C)[C@@H]1O[C@@H]([C@@H](CC)C(=O)On2nnc3ccccc32)CC[C@@H]1C)[C@H]1O[C@]2(C=C[C@@H](O)[C@]3(CC[C@@](C)([C@H]4CC[C@](O)(CC)[C@H](C)O4)O3)O2)[C@H](C)C[C@@H]1C	1.61
CC[C@@H](C(=O)[C@@H](C)[C@@H](O)[C@H](C)[C@@H]1O[C@@H]([C@@H](CC)C(=O)NCCOCCOCCOC)CC[C@@H]1C)[C@H]1O[C@]2(C=C[C@@H](O)[C@]3(CC[C@@](C)([C@H]4CC[C@](O)(CC)[C@H](C)O4)O3)O2)[C@H](C)C[C@@H]1C	1.03
CCCCNC(=O)[C@H](CC)[C@H]1CC[C@H](C)[C@H]([C@@H](C)[C@H](O)[C@H](C)C(=O)[C@H](CC)[C@H]2O[C@]3(C=C[C@@H](O)[C@]4(CC[C@@](C)([C@H]5CC[C@](O)(CC)[C@H](C)O5)O4)O3)[C@H](C)C[C@@H]2C)O1	0.81
CC[C@@H](C(=O)[C@@H](C)[C@@H](O)[C@H](C)[C@@H]1O[C@@H]([C@@H](CC)C(=O)NCc2ccccc2)CC[C@@H]1C)[C@H]1O[C@]2(C=C[C@@H](O)[C@]3(CC[C@@](C)([C@H]4CC[C@](O)(CC)[C@H](C)O4)O3)O2)[C@H](C)C[C@@H]1C	0.82

Item: CC[C@@H](C(=O)[C@@H](C)[C@@H](O)[C@H](C)[C@@H]1O[C@@H]([C@@H](CC)C(=O)Nc2ccccc2)CC[C@@H]1C)[C@H]1O[C@]2(C=C[C@@H](O)[C@]3(CC[C@@](C)([C@H]4CC[C@](O)(CC)[C@H](C)O4)O3)O2)[C@H](C)C[C@@H]1C | System: LoVo | Ratio IC50: 0.78

Item: CC[C@@H](C(=O)[C@@H](C)[C@@H](O)[C@H](C)[C@@H]1O[C@@H]([C@@H](CC)C(=O)NCCCN2CCOCC2)CC[C@@H]1C)[C@H]1O[C@]2(C=C[C@@H](O)[C@]3(CC[C@@](C)([C@H]4CC[C@](O)(CC)[C@H](C)O4)O3)O2)[C@H](C)C[C@@H]1C | System: LoVo | Ratio IC50: 1.08

Item: CC[C@@H](C(=O)[C@@H](C)[C@@H](O)[C@H](C)[C@@H]1O[C@@H]([C@@H](CC)C(=O)O)CC[C@@H]1C)[C@H]1O[C@]2(C=C[C@@H](O)[C@]3(CC[C@@](C)([C@H]4CC[C@](O)(CC)[C@H](C)O4)O3)O2)[C@H](C)C[C@@H]1C | System: LoVo | Ratio IC50: 5.61

Item: CC[C@@H](C(=O)[C@@H](C)[C@@H](O)[C@H](C)[C@@H]1O[C@@H]([C@@H](CC)C(=O)NCCc2c[nH]c3ccccc23)CC[C@@H]1C)[C@H]1O[C@]2(C=C[C@@H](O)[C@]3(CC[C@@](C)([C@H]4CC[C@](O)(CC)[C@H](C)O4)O3)O2)[C@H](C)C[C@@H]1C | System: LoVo | Ratio IC50: 0.81

Values were extracted from ChEMBL document CHEMBL2202961.
